experimentalEndpoint: melting point

Recorded results for 3 molecules are shown here.
{"molecule": "CC(C)(C)OC(=O)C1CC1c1ccc(-c2ncn(-c3ccc(OC(F)(F)F)cc3)n2)cc1 (stereo not drawn)", "melting point": "100 to 101 °C"}
{"molecule": "O=C(NCCNCc1cc2ccc(O)cc2o1)C12CC3CC(CC(C3)C1)C2", "melting point": "136 to 139 °C"}
{"molecule": "COc1ccc(C=C(NC(C)=O)C(=O)O)cc1OC", "melting point": "212 to 214 °C"}

**Query** Entry under review: COc1ccc(C2=NNC(=O)CC2c2ccncc2)cc1 (stereo not drawn) . Reported melting point?
**Result** 100 to 102 °C

**Query** Which measured melting point value corresponds to O=C1CCC(c2ccc(-n3cccc3)cc2)=NN1 ?
**Result** 222 to 223 °C

**Query** Item O=C(Nc1ccnc(C(=O)NO)c1)c1ccccc1 has what recorded melting point?
**Result** 175 to 184 °C

**Query** Would you mind telling me what melting point value was observed for OCCN(CCc1ccccc1)C(=S)NCCCc1ccncc1 ?
**Result** 106 to 107 °C

**Query** Consider the molecule Cc1ccc(C2c3c(C)c(N4CCN(c5ccc(C)cc5)CC4)c(C)c(C)c3OC2(C)C)cc1 (stereo not drawn) and give its measured melting point.
**Result** 157 to 158 °C

**Query** Which melting point value is on record for CCOC(=O)C(=O)Nc1cc(C(F)(F)F)cc(C(F)(F)F)c1[N+](=O)[O-] ?
**Result** 115 °C

**Query** # lookup: melting point of CON1C(C)(C)CC(OC(=O)c2cc(C(C)(C)C)c(O)c(C(C)(C)C)c2)CC1(C)C
**Result** 126 to 128 °C

**Query** Query: melting point; subject: CNS(=O)(=O)c1ccc(Oc2ccc(NC(C)=O)cc2)cc1
**Result** 183 to 184 °C

**Query** Give the measured melting point of COc1c(C2CCN(CCCCNC(=O)c3ccc(-c4ccc(NS(=O)(=O)CC(F)(F)F)cc4)cc3)CC2)ccc2c1CCCC2 .
**Result** 182 to 184 °C

**Query** Returns the measured melting point for the input molecule. Input: COc1ccc(Br)cc1S(=O)(=O)NCCCl
**Result** 150 °C

**Query** Which melting point value is on record for O=C1N(Cc2cccnc2)c2ccccc2C12COc1cc(F)c(F)cc12 (stereo not drawn) ?
**Result** 175 to 177 °C

---

The reader will find reported melting point values listed item by item below.

{"compound": "O=C(O)Cc1ccc(C(=O)O)cc1Sc1ccc(F)cc1", "melting point": "218 to 221 °C"}
{"compound": "COc1ccc2c(c1)C(=O)C(O)=C([N+](=O)[O-])C2=O", "melting point": "152 to 155 °C"}
{"compound": "CNC(=O)c1cnn(C2(C)CCCC2)c1C#N", "melting point": "139 to 141 °C"}
{"compound": "O=C(NC1CC1)c1cccc(-c2ccc3c(c2)C(Oc2ccc(Cl)cc2Cl)CC3)c1 (stereo unspecified)", "melting point": "179 to 180 °C"}

**Query** What melting point value was documented for this compound, CCNC(=O)c1c([Si](C)(C)C)ccc(C#C[Si](C)(C)C)c1Cl ?
**Result** 131 to 132 °C

**Query** State the recorded melting point for this entry: O=C(O)c1cccc2[nH]cc(Cc3ccc(OCc4ccc5ccccc5n4)cc3)c12
**Result** 209 to 211 °C

**Query** # input compound: COC(=O)c1cc(C(=O)c2c(C)c(OC)c3c(OCc4ccccc4)cccn23)ccc1NC(=O)C(F)(F)F ; wanted: its melting point
**Result** 214 °C

**Query** // melting point lookup, key: O=C(Nc1ccccc1)c1cn(-c2ccccc2)c2ccccc2c1=O
**Result** 203 to 205 °C

**Query** Need melting point of CCc1cn(C2CC(O)C(COC(c3ccccc3)(c3ccccc3)c3ccccc3)O2)c(=O)[nH]c1=O (stereo unspecified) , thanks.
**Result** 168 to 172 °C

**Query** Suppose we examine the compound CC1(C)OC(=O)C(Oc2ccccc2)=C1c1ccc(S(C)(=O)=O)cc1 ; what melting point value has been reported?
**Result** 135 to 136 °C

**Query** Would you kindly share the measured melting point for CC(C)N=C1C(c2ccccc2)=C(c2ccccc2)C(c2ccccc2)=C1c1ccccc1 ?
**Result** 223 °C

**Query** Could you tell me which melting point is on file for CN1CCC(N2C(=O)CN=C(c3ccccc3)c3ccccc32)CC1 ?
**Result** 158 to 159 °C

**Query** Param item = O=C(c1ccoc1)c1ccc(O)c(Cl)c1Cl ; retrieve measured melting point.
**Result** 138 to 142 °C

**Query** GET /values?readout=melting point&item= C=C(c1ccccc1)c1ccc(N2CCCC2)cc1
**Result** 82.5 to 83 °C

**Query** Query: melting point; subject: CCOC(=O)c1cn(C)c2ccc(C(=O)c3c(C)cc4ccccn34)cc2c1=O
**Result** 232 °C

**Query** Look up melting point for this compound: CCCCNC(=O)NCCCn1c(CCOC)nc2c(N)nc3ccccc3c21
**Result** 159 to 160 °C

**Query** Reported melting point for COC(=O)c1snc(-c2cc(C(F)(F)F)cc(C(F)(F)F)c2)c1C(=O)OC : what is it?
**Result** 71 to 74 °C

**Query** # query: melting point of entry Cc1cc(C)c2ncc(C#N)c(-c3ccccc3Cl)c2c1
**Result** 153 to 154 °C

**Query** Which melting point is reported for this compound? Cc1ccc(O)cc1N=C(c1ccccc1)c1ccccc1
**Result** 106 to 108 °C

**Query** GET /values?readout=melting point&item= CC(=O)NC[C@H]1CN(c2ccc(N3CCC(O)(CC(N)=O)CC3)c(F)c2)C(=O)O1
**Result** 208 to 210 °C

**Query** Need melting point of COC(=O)COc1ccc(SCc2ccc(-c3ccc(C(F)(F)F)cc3)cc2)c2c1CCCO2 , thanks.
**Result** 122 to 124 °C

**Query** Recorded melting point of CN1CCN(CCO)Cc2ccc(Nc3ncc(Cl)c(N[C@@H]4CCCC[C@H]4NS(C)(=O)=O)n3)cc21 , please.
**Result** 181 to 190 °C

**Query** Fill blank: measured melting point of the compound COc1cc(C(=O)O)c(N)cc1OCc1ccccc1 is ____.
**Result** 159 to 161 °C

**Query** Please give the measured melting point for this compound: CN(C)CCNc1ccc(O)c2c1C(=O)c1c(O)ccc(O)c1C2=O
**Result** 171 to 172 °C

**Query** What does the record list as melting point for COc1cc(C2C3=C(COC3=O)N(C)c3cc4c(cc32)OCO4)cc(OC)c1OC (stereo unspecified) ?
**Result** 226 °C

**Query** Reported melting point, compound CCc1nc(Cl)c(C(=O)NC)n1Cc1ccc2oc(-c3ccccc3N)c(Br)c2c1 : ____
**Result** 68 to 70 °C

Entry source: a melting point compilation (Tetko et al.; mined from patent text by program, amines drawn as free bases though some values may be those of a salt)
